Test system: Type 2-diabetes model mice KK-Ay/Ta Jc1
Experiment summary: Study on hyperlipemia-ameliorating effects (plasma neutral fat, total cholesterol, free fatty acid, visceral fat, body weight)
Assay type: in vivo
Experimental conditions: 0.05% by mass in feed CE2, 5 days, overnight fast; control group 52.3 ± 4.2
Assay readout: Body weight (average g/±SD)

molecule="CC1(C)CCC[C@](C)([C@H]2CC[C@]3(C)[C@@H]2[C@H](O)C[C@@H]2[C@@]4(C)CC[C@H](O)C(C)(C)[C@@H]4CC[C@]23C)O1 [PD, panaxadiol]" target_or_test_system="Type 2-diabetes model mice KK-Ay/Ta Jc1" readout_value="47.3 ± 1.9 g"
molecule="CC(C)=CCC[C@](C)(O)[C@H]1CC[C@]2(C)[C@@H]1[C@H](O)C[C@@H]1[C@@]3(C)CC[C@H](O)C(C)(C)[C@@H]3[C@@H](O)C[C@]12C [PPT, Protopanaxatriol]" target_or_test_system="Type 2-diabetes model mice KK-Ay/Ta Jc1" readout_value="45.3 ± 2.2 g"
molecule="CC(C)=CCCC(C)(O)[C@H]1CC[C@]2(C)[C@@H]1[C@H](O)C[C@@H]1[C@@]3(C)CC[C@H](O)C(C)(C)[C@@H]3CC[C@]12C (stereo in doubt) [PPD, protopanaxadiol]" target_or_test_system="Type 2-diabetes model mice KK-Ay/Ta Jc1" readout_value="46.8 ± 2.6 g"
molecule="CC1(C)CCC[C@](C)([C@H]2CC[C@]3(C)[C@@H]2[C@H](O)C[C@@H]2[C@@]4(C)CC[C@H](O)C(C)(C)[C@@H]4[C@@H](O)C[C@]23C)O1 [PT, panaxatriol]" target_or_test_system="Type 2-diabetes model mice KK-Ay/Ta Jc1" readout_value="43.9 ± 2.8 g"
